Test: Aqueous and organic solubility of Form 1 of Compound 2
Format: physicochemical
Conditions: ethanol, organic solvent or mixture; EtOH; read-out: Organic Solubility, Qualitative Solubility

{"columns": ["compound", "solubility"],
 "data": [
  ["CS(=O)(=O)O.NCc1cc(Oc2cccc(C(=O)N3C[C@@H](O)[C@H](F)C3)c2)nc(C(F)(F)F)c1 [Form 1 of Compound 2]", "~15 mg/mL"]
]}

###

Experiment: Preliminary free base solubility assessment of Compound I
Format: physicochemical
Settings: organic solvent or mixture, thermodynamic from solid, Tetrahydrofuran

{"columns": ["compound structure string", "solubility at 10 min"],
 "data": [
  ["NCc1cc(Oc2cccc(C(=O)N3C[C@@H](O)[C@H](F)C3)c2)nc(C(F)(F)F)c1", "> 100 mg/mL"]
]}

###

Test: physchem
Details: 25 °C, water, thermodynamic from solid
reported metric: solubility

{"columns": ["compound", "reported metric", "assay result"],
 "data": [
  ["Cl.NCc1cc(Oc2cccc(C(=O)N3C[C@@H](O)[C@H](F)C3)c2)nc(C(F)(F)F)c1 [Form 1 of Compound 1]", "solubility", "≥ 1000 mg/mL"]
]}

###

Test: Aqueous and organic solubility of Form 1 of Compound 2
Assay type: physicochemical
Settings: methanol; tetrahydrofuran/water (90:10), organic solvent or mixture; read-out: Organic Solubility, Qualitative Solubility
reported metric: solubility

{"columns": ["compound", "reported metric", "assay result"],
 "data": [
  ["CS(=O)(=O)O.NCc1cc(Oc2cccc(C(=O)N3C[C@@H](O)[C@H](F)C3)c2)nc(C(F)(F)F)c1 [Form 1 of Compound 2]", "solubility", "~100 mg/mL"]
]}

###

Assay: Preliminary free base solubility assessment of Compound I
Assay type: physicochemical
Conditions: organic solvent or mixture, thermodynamic from solid, Ethanol

{"columns": ["compound", "solubility at 10 min"],
 "data": [
  ["NCc1cc(Oc2cccc(C(=O)N3C[C@@H](O)[C@H](F)C3)c2)nc(C(F)(F)F)c1 [Compound I]", "> 100 mg/mL"]
]}

###

Experiment: Aqueous and organic solubility of Form 1 of Compound 2
Type: physicochemical
Conditions: aqueous medium, pH 10, aqueous buffer; read-out: Aqueous Solubility
reported metric: solubility

{"columns": ["molecule", "reported metric", "assay result"],
 "data": [
  ["CS(=O)(=O)O.NCc1cc(Oc2cccc(C(=O)N3C[C@@H](O)[C@H](F)C3)c2)nc(C(F)(F)F)c1 [Form 1 of Compound 2]", "solubility", "> 85 mg/mL"]
]}

###

Experiment: Preliminary free base solubility assessment of Compound I
Type: physicochemical
Conditions: organic solvent or mixture, thermodynamic from solid, Toluene, up to 50 vol

{"columns": ["compound structure string", "solubility at 10 min"],
 "data": [
  ["NCc1cc(Oc2cccc(C(=O)N3C[C@@H](O)[C@H](F)C3)c2)nc(C(F)(F)F)c1", "> 20 mg/mL"]
]}

###

Assay: Aqueous and organic solubility of Form 1 of Compound 2
Assay type: physicochemical
Conditions: ethanol/water (90:10); isopropanol/water (90:10), organic solvent or mixture; read-out: Organic Solubility, Qualitative Solubility

{"columns": ["compound", "solubility"],
 "data": [
  ["CS(=O)(=O)O.NCc1cc(Oc2cccc(C(=O)N3C[C@@H](O)[C@H](F)C3)c2)nc(C(F)(F)F)c1 [Form 1 of Compound 2]", "~50 mg/mL"]
]}

###

Assay: Preliminary free base solubility assessment of Compound I
Type: physicochemical
Details: organic solvent or mixture, thermodynamic from solid, 2-Propanol
reported metric: solubility at 10 min

{"columns": ["compound structure string", "assay result"],
 "data": [
  ["NCc1cc(Oc2cccc(C(=O)N3C[C@@H](O)[C@H](F)C3)c2)nc(C(F)(F)F)c1", "> 100 mg/mL"]
]}

###

Assay: Preliminary free base solubility assessment of Compound I
Assay type: physicochemical
Settings: organic solvent or mixture, thermodynamic from solid, Acetonitrile

{"columns": ["compound", "solubility at 10 min"],
 "data": [
  ["NCc1cc(Oc2cccc(C(=O)N3C[C@@H](O)[C@H](F)C3)c2)nc(C(F)(F)F)c1 [Compound I]", "> 100 mg/mL"]
]}

###

Assay: Aqueous and organic solubility of Form 1 of Compound 2
Format: physicochemical
Conditions: water, dimethyl sulfoxide; read-out: Organic Solubility, Qualitative Solubility

{"columns": ["molecule", "solubility"],
 "data": [
  ["CS(=O)(=O)O.NCc1cc(Oc2cccc(C(=O)N3C[C@@H](O)[C@H](F)C3)c2)nc(C(F)(F)F)c1 [Form 1 of Compound 2]", "> 200 mg/mL"]
]}

###

Experiment: Preliminary free base solubility assessment of Compound I
Format: physicochemical
Details: organic solvent or mixture, thermodynamic from solid, Hexane

{"columns": ["compound structure string", "solubility at 10 min"],
 "data": [
  ["NCc1cc(Oc2cccc(C(=O)N3C[C@@H](O)[C@H](F)C3)c2)nc(C(F)(F)F)c1", "> 100 mg/mL"]
]}

###

Biological target: LOXL2 (Homo sapiens (Human))
Sequence (Q9Y4K0 26-774): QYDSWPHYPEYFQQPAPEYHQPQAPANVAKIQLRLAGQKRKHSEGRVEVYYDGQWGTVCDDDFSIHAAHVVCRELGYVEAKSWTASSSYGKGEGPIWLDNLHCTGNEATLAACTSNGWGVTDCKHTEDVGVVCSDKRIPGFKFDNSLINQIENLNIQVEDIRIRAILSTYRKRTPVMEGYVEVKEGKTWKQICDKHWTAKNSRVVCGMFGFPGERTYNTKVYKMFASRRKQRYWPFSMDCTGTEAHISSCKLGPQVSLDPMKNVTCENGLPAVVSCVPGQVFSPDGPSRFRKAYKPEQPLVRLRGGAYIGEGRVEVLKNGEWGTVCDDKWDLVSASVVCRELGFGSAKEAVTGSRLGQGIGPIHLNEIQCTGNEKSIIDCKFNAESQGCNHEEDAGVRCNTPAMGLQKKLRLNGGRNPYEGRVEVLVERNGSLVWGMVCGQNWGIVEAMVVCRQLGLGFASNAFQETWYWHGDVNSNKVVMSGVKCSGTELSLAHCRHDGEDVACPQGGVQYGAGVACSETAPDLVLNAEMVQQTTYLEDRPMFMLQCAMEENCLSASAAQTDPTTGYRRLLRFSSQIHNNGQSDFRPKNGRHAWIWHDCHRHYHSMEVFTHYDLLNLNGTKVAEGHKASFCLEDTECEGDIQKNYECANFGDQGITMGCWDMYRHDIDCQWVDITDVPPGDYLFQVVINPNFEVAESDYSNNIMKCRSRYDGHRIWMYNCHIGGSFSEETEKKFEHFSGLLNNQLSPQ
Assay: Human LOXL2 CCM Assay (Amplex Red amine oxidase activity)
Type: biochemical
Conditions: concentrated conditioned media from CHO cells expressing human LOXL2; 2 h at 37° C.
reported metric: IC50

{"columns": ["compound", "target entity", "assay result"],
 "data": [
  ["Cl.NCc1cc(Oc2cccc(C(=O)N3C[C@@H](O)[C@H](F)C3)c2)nc(C(F)(F)F)c1 [Compound 1, hydrochloride salt]", "LOXL2 (Homo sapiens (Human))", "< 0.3 µM"]
]}

###

Test: Preliminary free base solubility assessment of Compound I
Assay type: physicochemical
Details: organic solvent or mixture, thermodynamic from solid, Ethyl Acetate
reported metric: solubility at 10 min

{"columns": ["compound structure string", "assay result"],
 "data": [
  ["NCc1cc(Oc2cccc(C(=O)N3C[C@@H](O)[C@H](F)C3)c2)nc(C(F)(F)F)c1", "> 100 mg/mL"]
]}
